# assay.comment: antimalarial activity against Dd2 strain (AID 2302)
# assay.setup: P. falciparum Dd2 in RBCs, LDH growth readout, 72 h; at 2 µM
Activity calls are given as the source filed them.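 The calls were made as follows: active = growth inhibition above 50% at the single 2 µM test dose, taken to imply half-maximal potency below 2 µM; inactive = the rest.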
Outcomes: active, inactive

CC(C)(C)c1ccc(NC(=O)c2ccc(CN3CCCN(Cc4cccc(F)c4)CC3)cc2)cc1 = inactive
O=C(Nc1ccc([N+](=O)[O-])cc1O)Nc1ccccc1Oc1ccccc1 = inactive
O=C(Nc1ccc(OC2CCN(Cc3ccc(F)cc3)C2)c(Cl)c1)c1cccs1 (stereo not given) = active
COc1cccc(-c2ccc3c(-c4cccc(NC(C)=O)c4)cnc(N)c3c2)c1 = active
NC1CCN(Cc2cccc(-c3csc(-c4nc5ccccc5[nH]4)c3)c2)C1 (stereo not given) = inactive
